Tested on: CAOV3
Assay: Primary qHTS to identify gynecologic anti-cancer compounds using libraries of approved drugs and bioactive compounds (AID 1345084); further: nearly all actives have a fitted effect of over 55% in size; on activity change, negative = cytotoxicity: on the % scale 0 is the no-effect control and ±100 the full control effect
Settings: Gynecologic cancer cell panel viability, ATPlite luminescence, 48 h; series mostly up to 57.5 µM
Records with an inconclusive call do not appear. Calls of active or inactive are those of the source. The call rests on the fitted dose curve; in most records, active means well fitted cell-killing curve with a large enough effect; inconclusive means small, poorly fitted or top-dose-only effect, or effect the other way; inactive means flat fitted curve, though single readings scatter.
Provide the recorded activity change, negative = cytotoxicity for the entries that follow.

// worked examples, activity change, negative = cytotoxicity included
Compound	activity change, negative = cytotoxicity
CC1(C)CC[C@@]2(C(=O)O[C@@H]3O[C@H](CO)[C@@H](O)[C@H](O)[C@H]3O)C(C1)C1=CCC3[C@@]4(C)CC[C@@H](O[C@@H]5O[C@H](C(=O)O)[C@@H](O[C@@H]6OC[C@@H](O)[C@H](O)[C@H]6O)[C@H](O[C@@H]6OC[C@](O)(CO)[C@H]6O)[C@H]5O)C(C)(C)C4CC[C@@]3(C)[C@]1(C)C[C@H]2O (stereo partly specified)	-43.7% [at 11.6 µM] (inactive)
C[C@@H]1O[C@@H](O[C@H]2[C@H](O[C@H]3CC[C@@]4(C)C(CC[C@]5(C)C4C=C[C@]46OC[C@@]7(CCC(C)(C)C[C@H]74)[C@@H](O)C[C@]65C)[C@]3(C)CO)O[C@H](CO)[C@@H](O)[C@@H]2O[C@@H]2O[C@H](CO)[C@@H](O[C@@H]3O[C@@H](C)[C@H](O)[C@@H](O)[C@H]3O)[C@H](O)[C@H]2O)[C@H](O)[C@H](O)[C@H]1O (stereo partly specified)	-6.89% [at 11.6 µM] (inactive)

Consider the following items and state reported activity change, negative = cytotoxicity for each.
1. CC1(C)CC[C@]2(CO[C@@H]3O[C@H](CO)[C@@H](O)[C@H](O)[C@H]3O)[C@@H](O)C[C@]3(C)C(=CCC4[C@@]5(C)CC[C@H](O[C@@H]6O[C@H](CO[C@@H]7O[C@H](CO[C@@H]8OC[C@@H](O)[C@H](O)[C@H]8O)[C@@H](O)[C@H](O)[C@H]7O)[C@@H](O)[C@H](O)[C@H]6O)C(C)(C)C5CC[C@]43C)[C@@H]2C1 (stereo partly specified)
2. CC1(C)CC[C@]2(C(=O)O)[C@H](O)C[C@]3(C)C(=CCC4[C@@]5(C)CC[C@H](O[C@@H]6O[C@H](CO[C@@H]7OC[C@H](O)[C@H](O)[C@H]7O[C@@H]7OC[C@@H](O)[C@H](O)[C@H]7O)[C@@H](O)[C@H](O)[C@H]6O[C@@H]6O[C@H](CO)[C@@H](O)[C@H](O)[C@H]6O)C(C)(C)C5CC[C@]43C)[C@@H]2C1 (stereo partly specified)
3. C[C@H](N)C(=O)N[C@@H](Cc1ccc(O)cc1)C(=O)N1CCC[C@H]1C(=O)NCC(=O)N[C@@H](CCCCN)C(=O)N[C@@H](Cc1ccccc1)C(N)=O

Output:
["5.01% [at 11.6 µM] (inactive)", "-15.5% [at 11.6 µM] (inactive)", "7.8% [at 11.6 µM] (inactive)"]

Task: What value of measured activity change, negative = cytotoxicity is listed for C[C@@H]1O[C@@H](O[C@H]2[C@H](O)[C@@H](O[C@@H]3O[C@H](CO)[C@@H](O)[C@H](O[C@@H]4O[C@H](CO)[C@@H](O)[C@H](O)[C@H]4O)[C@H]3O)[C@H](O[C@H]3CC[C@@]4(C)C(=CC[C@@H]5C4CC[C@@]4(C)C5C[C@@H]5OC6(CC[C@@](C)(CO[C@@H]7O[C@H](CO)[C@@H](O)[C@H](O)[C@H]7O)O6)[C@@H](C)[C@@H]54)C3)O[C@@H]2CO)[C@H](O)[C@H](O)[C@H]1OC1OC(CO)C(O)C(O)C1O (stereo partly specified) ?
Output: 7.26% [at 6.55 µM] (inactive)

###

System: Hek293T
Assay: Primary qHTS to identify gynecologic anti-cancer compounds using libraries of approved drugs and bioactive compounds (AID 1345084); further: nearly all actives have a fitted effect of over 55% in size
Conditions: Gynecologic cancer cell panel viability, ATPlite luminescence, 48 h, control line for the selectivity index; series mostly up to 57.5 µM
Results filed as inconclusive are left out. Calls of active or inactive are those of the source. The call rests on the fitted dose curve; in most records, active means well fitted cell-killing curve with a large enough effect; inconclusive means small, poorly fitted or top-dose-only effect, or effect the other way; inactive means flat fitted curve, though single readings scatter.
Returns: one label drawn from true (1) = active, false (0) = inactive

Molecule	Target Or Test System	Label Value
CC1CCC2(OC1)OC1CC3C4CC=C5CC(O)CC(O[C@@H]6OC[C@@H](O)[C@H](O)[C@H]6O)C5(C)C4CCC3(C)C1(O)C2C (stereo partly specified)	Hek293T	false (0)
OCCc1ccc(O[C@@H]2O[C@H](CO)[C@@H](O)[C@H](O)[C@H]2O)cc1	Hek293T	false (0)
COc1cc2ncnc(Nc3cccc(O)c3)c2cc1OC	Hek293T	false (0)

Task: Call for entry C/C=C(\C)C(=O)O[C@H]1[C@@H](O[C@]2(COC(=O)CC(C)C)O[C@H](COC(=O)C(C)CC)[C@@H](OC(C)=O)[C@@H]2O)O[C@H](COC(C)=O)[C@@H](O)[C@@H]1O (stereo partly specified) :
Output: false (0)

Task: # outcome recorded in this test, key = COC(=O)N1CCC(n2ncc3c(N4CCOCC4)nc(-c4ccc(NC(=O)Nc5ccc(CO)cc5)cc4)nc32)CC1
Output: true (1)

Task: What call does the record list for C=C1C(OC2OCC(O)C(O)C2O)CC2C(C)(C)C(O)CCC2(C)C1CC/C(C)=C\CO (stereo unspecified) ?
Output: false (0)

Task: Give the logged outcome of this assay for the following molecule: COc1cc2ncnc(N3CCC(Oc4cnc5ccccc5n4)C3)c2cc1OC (stereo unspecified)
Output: true (1)

Task: How did this test come out for CCOCc1nc2c(N)nc3ccccc3c2n1CC(C)(C)O ?
Output: false (0)

Task: Entry CO[C@@H](C)Cn1c(=O)n(C)c2cnc3ccc(-c4cncc(C(C)(C)O)c4)cc3c21 : call = ?
Output: true (1)

Task: Record request — test call for CC(C(O)/C=C/C(C)(C)O)C1CCC2(C)C3C(=O)C=C4C(CCC(O)C4(C)C)C3(C)CCC12C (stereo unspecified)
Output: false (0)

Task: So what was the verdict on Cc1cc(C)c(CNC(=O)c2cc(-c3ccc(CN4CCOCC4)cc3)cc3c2cnn3C2CCCC2)c(=O)[nH]1 in this test?
Output: false (0)

Task: Per the assay record, what outcome was assigned to CC1=CC2C(CC1OC1OC(CO)C(O)C(O)C1O)C(C)CC(=O)C2C(C)C (stereo unspecified) ?
Output: false (0)

Task: Test call, this molecule: Cc1c(NC(=O)c2cc(C(N)=O)nc3cc(F)ccc23)c(C(F)(F)F)nn1Cc1ccc(C#N)cc1
Output: false (0)

Task: Could you please tell me the result logged for CCNC(=O)C1OC(n2cnc3c(N)nc(NCCc4ccc(CCC(=O)O)cc4)nc32)C(O)C1O (stereo unspecified) in this assay?
Output: false (0)

Task: Kindly provide the recorded test outcome for the following molecule: CC(=O)OC1CC2C3(C)CCC(OC(=O)CC(=O)O)C(C)(C)C3CCC2(C)C2(C)CCC(C3(C)CCC(=O)O3)C12 (stereo unspecified)
Output: false (0)

Task: Status in this test for CC/C=C\C/C=C\C/C=C\CCCCCCCC(=O)OCC(O)COC1OC(CO)C(O)C(O)C1O (stereo unspecified) ?
Output: false (0)

###

Experiment: qHTS drug screen for cell cycle checkpoint inhibitors in PARPi-resistant BRCA-mutant ovarian cancer cell lines. (AID 1963452)
Conditions: PEO1/OlaR viability, CellTiter-Glo luminescence, 96 h; measured here: PEO4 Z-AUC; stronger effect = lower value
Measurement Name: Z-AUC
Give bare numbers.

Answered cases to consult:
In [3]: df
Out[3]:
                                   molecule  assay_result
0  CC[C@@](C)(Nc1ccnc(-c2c[nH]c3ncccc23)n1)C(=O)NCC(F)(F)F          -0.4
1  COc1ncc(Nc2ncc([C@H](C)N3CCN(S(C)(=O)=O)CC3)cc2-c2nc(C)nc(N)n2)cc1F        -0.164
2  Cc1cnc(Nc2ccc(F)cc2Cl)nc1-c1c[nH]c(C(=O)NC(CO)c2cccc(Cl)c2)c1 (centres undefined)        -0.952

Query molecule follows.
Task: Fill in the blank: the reported Z-AUC of COc1cc(C(=O)NC2CCN(C)CC2)c(F)cc1Nc1ncc2c(n1)N(C1CCCC1)CC(F)(F)C(=O)N2C is ____.
Output: -2.16

###

Molecular target: N-terminal Xaa-Pro-Lys N-methyltransferase 1 (Homo sapiens)
Assay: Confirmatory qHTS for Inhibitors of N-terminal methyltransferase 1 (NTMT1): MTaseGlo Assay (AID 1645874); further: nearly all actives have a fitted effect of over 65% in size
Details: NTMT1 enzyme, MTase-Glo SAH luminescence; series mostly up to 100 µM
Inconclusive results are not listed. Activity calls are given as the source filed them. Calls come from the whole dose curve; as a rule, active = well fitted inhibition curve with a large enough effect; inconclusive = small, poorly fitted or top-dose-only effect; inactive = no such curve, though single readings can be large or run the other way.
Classes to choose from: active, inactive

Worked examples, 2 compounds total:
In [3]: df
Out[3]:
                                   compound                     target_or_test_system  label_value
0  COc1cc2ncnc(Nc3ccc(F)c(Cl)c3)c2cc1NC(=O)/C=C/CN1CCCCC1  N-terminal Xaa-Pro-Lys N-methyltransferase 1 (Homo sapiens)       active
1  COc1cc(N2CCC(N3CCN(C)CC3)CC2)ccc1Nc1ncc(Cl)c(-c2c[nH]c3ccccc23)n1  N-terminal Xaa-Pro-Lys N-methyltransferase 1 (Homo sapiens)       active

Task: I'd appreciate the recorded outcome for CNC(=O)c1ccccc1Nc1cc(Nc2ccc(N3CCOCC3)cc2OC)ncc1C(F)(F)F from this test.
Output: inactive

Task: Outcome logged for COc1cc2c(cc1O)CC[C@H]1[C@@H]2CC[C@]2(C)[C@H](O)CC[C@@H]12 in this assay:
Output: active

Task: Check the results log: what was the call for CN(C)C/C=C/C(=O)Nc1cc2c(Nc3ccc(F)c(Cl)c3)ncnc2cc1OC1CCOC1 (stereo not given) ?
Output: active

Data provenance: PubChem BioAssay (NCATS)
